TARGET SYSTEM: Muscarinic acetylcholine receptor M1 (Rattus norvegicus) (UniProt P08482)
Sequence (P08482 whole entry, looked up): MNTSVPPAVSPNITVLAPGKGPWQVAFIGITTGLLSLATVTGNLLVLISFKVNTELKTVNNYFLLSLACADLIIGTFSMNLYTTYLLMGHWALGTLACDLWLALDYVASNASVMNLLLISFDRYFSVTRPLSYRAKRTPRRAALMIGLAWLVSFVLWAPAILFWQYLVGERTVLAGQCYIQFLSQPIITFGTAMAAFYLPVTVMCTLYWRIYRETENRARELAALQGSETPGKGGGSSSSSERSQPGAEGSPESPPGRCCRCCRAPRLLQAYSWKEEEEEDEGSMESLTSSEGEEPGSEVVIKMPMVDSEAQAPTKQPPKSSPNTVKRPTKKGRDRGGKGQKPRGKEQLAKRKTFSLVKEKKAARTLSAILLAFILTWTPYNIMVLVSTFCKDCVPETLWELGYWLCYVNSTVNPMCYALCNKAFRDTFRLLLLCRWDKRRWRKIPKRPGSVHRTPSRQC
PROTOCOL SUMMARY: qHTS Assay for Antagonists of Acetylcholine Muscarinic M1 Receptor: Kinetic Measurement of Intracellular Calcium Response (AID 943);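 further: Fluo-4 calcium signal as peak divided by basal fluorescence over 4 min; nearly all actives have a fitted effect of over 75% in size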
DETAILS: M1-expressing cells, kinetic intracellular calcium fluorescence; series mostly up to 35.3 µM
Records with an inconclusive call do not appear. Active and inactive are the calls of the source. The call rests on the fitted dose curve; in most records, active means well fitted inhibition curve with a large enough effect; inconclusive means small, poorly fitted or top-dose-only effect; inactive means no such curve, though single readings can be large or run the other way.
The categories you may choose from are active, inactive

{"STRUCTURE STRING": "N#C/C(=C\\c1c[nH]c2ccccc12)C(=O)c1ccc(O)c(O)c1", "CATEGORY LABEL": "inactive"}

Consider the record given below.
Ask: Which outcome was assigned to CN(C)C(N)=NCCC[C@H](N)C(=O)O in this test?
Result: inactive

---

TARGET SYSTEM: ATP-dependent DNA helicase Q1 (Homo sapiens)
PROTOCOL SUMMARY: qHTS Validation Assay for Inhibitors of RecQ-Like Dna Helicase 1 (RECQ1) (AID 2353)
DETAILS: recombinant RECQ1 helicase DNA unwinding assay; series mostly up to 25.6 µM
Activity calls are given as the source filed them. Calls come from the whole dose curve; as a rule, active = well fitted inhibition curve with a large enough effect; inconclusive = small, poorly fitted or top-dose-only effect; inactive = flat fitted curve, though single readings scatter.

{"MOLECULE": "O=C(O)/C=C/C(O)c1ccc(Cl)cc1 (stereo not drawn)", "outcome": "inactive"}
{"MOLECULE": "COc1ccccc1N1CCN(CCCCNS(=O)(=O)c2cccc3c(N(C)C)cccc23)CC1", "outcome": "inactive"}
{"MOLECULE": "CC[C@@H](C)[C@H]1O[C@]2(CC[C@@H]1C)C[C@@H]1C[C@@H](C/C=C(\\C)[C@@H](O[C@H]3C[C@H](OC)[C@@H](O[C@H]4C[C@H](OC)[C@@H](O)[C@H](C)O4)[C@H](C)O3)[C@@H](C)/C=C/C=C3\\CO[C@@H]4[C@H](O)C(C)=C[C@@H](C(=O)O1)[C@]34O)O2", "outcome": "inactive"}

---

PROTOCOL SUMMARY: MultiTox-Fluor Cytotoxicity Assay - LYMP1-001 - Live Cells (AID 947)
DETAILS: LYMP1-001 lymphoblastoid cells, live-cell protease fluorescence viability; series mostly up to 92.2 µM
Results filed as inconclusive are left out. The source made the active and inactive calls. Calls come from the whole dose curve; as a rule, active = well fitted cell-killing curve with a large enough effect; inconclusive = small, poorly fitted or top-dose-only effect; inactive = flat fitted curve, though single readings scatter.
The categories you may choose from are active, inactive

Some solved entries appear below for comparison.
{"STRUCTURE STRING": "Oc1ccccc1O", "CATEGORY LABEL": "inactive"}
{"STRUCTURE STRING": "Nc1ccc([N+](=O)[O-])cc1O", "CATEGORY LABEL": "inactive"}

Ask: Which outcome was assigned to COc1cc(/C=C/C(=O)CC(=O)/C=C/c2ccc(O)c(OC)c2)ccc1O in this test?
Result: inactive

Ask: Which outcome was assigned to CN(C)c1ccc(C(=C2C=CC(=[N+](C)C)C=C2)c2ccccc2)cc1 in this test?
Result: active

Ask: Which outcome was assigned to CN(C)c1ccc(N=NS(=O)(=O)O)cc1 in this test?
Result: inactive

Ask: Which outcome was assigned to Nc1ccc(O)c(C(=O)O)c1 in this test?
Result: inactive

Ask: Which outcome was assigned to Nc1nc2ccc([N+](=O)[O-])cc2s1 in this test?
Result: inactive

Ask: Which outcome was assigned to CCCOC(=O)c1ccc(O)cc1 in this test?
Result: inactive

Ask: Which outcome was assigned to C#C[C@]1(O)CC[C@H]2[C@@H]3CCc4cc(O)ccc4[C@H]3CC[C@@]21C in this test?
Result: inactive

Ask: Which outcome was assigned to c1ccc2sc(SSc3nc4ccccc4s3)nc2c1 in this test?
Result: inactive

Ask: Which outcome was assigned to O=C(O)/C=C\C(=O)O in this test?
Result: inactive

Ask: Which outcome was assigned to Nc1ccc(O)c([N+](=O)[O-])c1 in this test?
Result: inactive

---

PROTOCOL SUMMARY: qHTS of pediatric cancer cell lines to identify multiple opportunities for drug repurposing: Primary screen for RD cells (AID 1347104); further: nearly all actives have a fitted effect of over 55% in size
DETAILS: RD rhabdomyosarcoma viability, CellTiter-Glo luminescence, 48 h; series mostly up to 46 µM
Records with an inconclusive call do not appear. Calls of active or inactive are those of the source. Calls come from the whole dose curve; as a rule, active = well fitted cell-killing curve with a large enough effect; inconclusive = small, poorly fitted or top-dose-only effect; inactive = flat fitted curve, though single readings scatter.
The categories you may choose from are active, inactive

Ask: Which outcome was assigned to O=C(O)c1cc(O)c(O)c(O)c1 in this test?
Result: inactive

Ask: Which outcome was assigned to O=C(OCc1ccccc1)c1ccccc1 in this test?
Result: inactive

Ask: Which outcome was assigned to CCCCCCCCCCCC(=O)[O][Sn]([CH2]CCC)([CH2]CCC)[O]C(=O)CCCCCCCCCCC in this test?
Result: inactive

Ask: Which outcome was assigned to CCCCCCCCCCCCCCCC(=O)OC(C)C in this test?
Result: inactive

Ask: Which outcome was assigned to COC(=O)c1nc(Cl)c(Cl)nc1N in this test?
Result: active

Ask: Which outcome was assigned to O=C(Nc1ccc(C(=O)O)c(O)c1)c1ccccc1 in this test?
Result: inactive

Ask: Which outcome was assigned to COc1ccc(-c2cc(=S)ss2)cc1 in this test?
Result: inactive

Ask: Which outcome was assigned to CC(=O)SCC(CC(=O)c1ccc(C)cc1)C(=O)O (configuration not stated) in this test?
Result: inactive

Ask: Which outcome was assigned to O=C(O)Cc1ccc(-c2ccccc2)cc1 in this test?
Result: inactive

---

Tested on: GB4
PROTOCOL SUMMARY: qHTS profiling for inhibitors of Plasmodium falciparum proliferation (AID 504749); further: nearly all actives have a fitted effect of over 60% in size
DETAILS: P. falciparum in erythrocytes, SYBR Green DNA, 72 h; series mostly up to 28.7 µM
Records with an inconclusive call do not appear. Active and inactive are the calls of the source. Calls come from the whole dose curve; as a rule, active = well fitted inhibition curve with a large enough effect; inconclusive = small, poorly fitted or top-dose-only effect; inactive = flat fitted curve, though single readings scatter. Where a SMILES comes first, the peptide text is derived from it. [ ]: non-standard residue; d: D form. pGlu = O=C1CC[C@@H](C(=O)O)N1; Thz = O=C(O)[C@@H]1CSCN1
The categories you may choose from are y for active, n for inactive

Some solved entries appear below for comparison.
{"COMPOUND": "CCCCCC[C@@H](O)C/C=C\\CCCCCCCC(=O)O", "CATEGORY LABEL": "n"}
{"COMPOUND": "C=CCN1C(=O)C(CC(C)C)NC1=S (stereo not given)", "CATEGORY LABEL": "n"}
{"COMPOUND": "COc1cc(/C=C/C(=O)N2CCN(CC(=O)N3CCCC3)CC2)cc(OC)c1OC", "CATEGORY LABEL": "n"}
{"COMPOUND": "c1ccc2sc(SSc3nc4ccccc4s3)nc2c1", "CATEGORY LABEL": "n"}
{"COMPOUND": "CC(N)C(=O)OC(C)(C)Cc1ccc(Cl)cc1 (stereo not given)", "CATEGORY LABEL": "y"}
{"COMPOUND": "Nc1ccc(O)c(C(=O)O)c1", "CATEGORY LABEL": "n"}
{"COMPOUND": "CN1[C@@H]2CC[C@H]1CC(OC(=O)C(CO)c1ccccc1)C2 (stereo not given in full)", "CATEGORY LABEL": "n"}
{"COMPOUND": "COC(=O)C1=C(C)NC(C)=C(C(=O)OCC(C)C)C1c1ccccc1[N+](=O)[O-] (stereo not given)", "CATEGORY LABEL": "y"}
{"COMPOUND": "CCCCCCCCCCCCCCCCCC(=O)O", "CATEGORY LABEL": "n"}
{"COMPOUND": "O=C1CC[C@@H](C(=O)N2CSC[C@H]2C(=O)O)N1 ([pGlu]-[Thz]-OH)", "CATEGORY LABEL": "n"}

Ask: Which outcome was assigned to CCCCCCCCCCCCCCCC(=O)OC(C)C in this test?
Result: n

---

System: HEK293
PROTOCOL SUMMARY: Cytotoxic Profiling of Annotated Libraries Using Quantitative High-Throughput Screening (AID 1296008); further: nearly all actives have a fitted effect of over 60% in size; further: potency means the concentration at half of the fitted maximal effect
DETAILS: Five cell lines viability, CellTiter-Glo ATP luminescence, 48-72 h
Results filed as inconclusive are left out. The source made the active and inactive calls. Calls follow the shape of the dose curve; as a rule, active = well fitted inhibition curve with a large enough effect; inconclusive = small, poorly fitted or top-dose-only effect; inactive = flat fitted curve, though single readings scatter.
RESULT TYPE: Potency

Record excerpt, results attached:
{"MOLECULE": "[O-][n+]1ccccc1SSc1cccc[n+]1[O-]", "Potency": "411 nM (active)"}
{"MOLECULE": "CCNc1nc2c(ncn2[C@H]2C[C@H](O)[C@@H](CO)O2)c(=O)[nH]1", "Potency": "inactive"}
{"MOLECULE": "CC1(C)S[C@@H]2[C@H](NC(=O)[C@H](N)c3ccc(O)cc3)C(=O)N2[C@H]1C(=O)O", "Potency": "inactive"}
{"MOLECULE": "CCCCCCCCCCCCCCCCCC(=O)O", "Potency": "inactive"}
{"MOLECULE": "CN1CC(=O)N/C1=N/C(=O)Nc1cccc(Cl)c1", "Potency": "inactive"}

Provide Potency values for the following items, in order.
1. c1ccc2sc(SN3CCOCC3)nc2c1
2. C=CCCCCCCCCC(=O)O
3. CCOC(=O)c1ccccc1O

Result:
1: inactive; 2: inactive; 3: inactive

Provide Potency values for the following items, in order.
1. CCCCC1C(=O)N(c2ccccc2)N(c2ccc(O)cc2)C1=O (stereo unspecified)
2. N=C1N=C(N)c2cc3ccccc3cc21
3. CO[C@@]1(NC(=O)Cc2cccs2)C(=O)N2C(C(=O)O)=C(COC(N)=O)CS[C@@H]21
4. COC(=O)c1nc(Cl)c(Cl)nc1N
5. N=C(N)N
6. O=C(Nc1ccc(C(=O)O)c(O)c1)c1ccccc1

Result:
4730 nM (active)
19300 nM (active)
inactive
841 nM (active)
inactive
inactive

Provide Potency values for the following items, in order.
1. CN1CCN(c2cc3c(nn2)Oc2ccccc2N3C)CC1
2. CCCSc1ccc2nc(NC(=O)OC)[nH]c2c1
3. COc1cccc2c1C(=O)c1c(O)c3c(c(O)c1C2=O)C[C@@](O)(C(=O)CO)C[C@@H]3O[C@H]1C[C@H](N)[C@H](O[C@@H]2CCCCO2)[C@H](C)O1

Result:
["inactive", "750 nM (active)", "84.1 nM (active)"]

Provide Potency values for the following items, in order.
1. c1ccc(CCNc2nc(-c3ccccc3)cs2)cc1
2. COC(=O)C1=C(C)NC(C)=C(C(=O)OCC(C)=O)C1c1ccccc1[N+](=O)[O-] (stereo unspecified)
3. Cc1onc(-c2c(F)cccc2Cl)c1C(=O)N[C@@H]1C(=O)N2[C@@H]1SC(C)(C)[C@@H]2C(=O)O
4. O=c1[nH]c2ccccc2n1CCCN1CCN(C(c2ccccc2)c2ccccc2)CC1

Result:
["11900 nM (active)", "inactive", "inactive", "16800 nM (active)"]
